- tested-target: Human DYRK1B (Homo sapiens)
- Construct: purchased Invitrogen PR8350B (former PV4649)
- Sequence (Q9Y463 whole entry): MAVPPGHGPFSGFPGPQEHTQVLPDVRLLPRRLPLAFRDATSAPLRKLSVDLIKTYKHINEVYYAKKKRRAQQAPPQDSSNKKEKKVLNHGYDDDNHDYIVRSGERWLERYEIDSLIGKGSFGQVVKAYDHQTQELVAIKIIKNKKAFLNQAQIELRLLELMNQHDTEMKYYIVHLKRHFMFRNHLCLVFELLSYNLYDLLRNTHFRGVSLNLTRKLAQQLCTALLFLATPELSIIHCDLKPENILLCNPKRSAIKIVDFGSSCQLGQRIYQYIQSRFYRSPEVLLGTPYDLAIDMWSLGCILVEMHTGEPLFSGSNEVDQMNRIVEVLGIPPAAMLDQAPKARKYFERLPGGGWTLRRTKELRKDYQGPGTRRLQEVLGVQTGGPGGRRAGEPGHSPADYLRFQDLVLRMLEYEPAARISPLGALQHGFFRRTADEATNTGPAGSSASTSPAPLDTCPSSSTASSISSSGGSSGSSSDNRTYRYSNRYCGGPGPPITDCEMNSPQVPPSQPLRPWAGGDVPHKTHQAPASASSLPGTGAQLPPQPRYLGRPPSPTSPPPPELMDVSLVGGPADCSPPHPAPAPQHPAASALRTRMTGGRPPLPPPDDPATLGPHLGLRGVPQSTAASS
- test-details: DYRK1B Kinase TR-FRET (IMAP-Tb) Assay
- Type: biochemical
- measurement-setup: TR-FRET (IMAP-Tb); ATP 70 μM; 37° C. 60 minutes; read-out: Enzyme IC50 (μM) DYRK1B
Where a name gives a salt, the structure may show the parent alone.
Hi! Just check whether IC50 is below 0.08 µM. Below gives class 1, equal or above gives class 0.

compound: O=C(NCc1cccc(Cl)c1)c1ccc(Cl)c(NC(=O)c2cc3cnc(N[C@H]4CC[C@@H](O)CC4)nc3[nH]c2=O)c1
class-assignment: class 1
--
compound: COC(=O)c1ccc(Cl)c(NC(=O)c2cc3cnc(NCCO)nc3[nH]c2=O)c1
class-assignment: class 1
--
compound: CN1CCC(CCNc2ncc3cc(C(=O)Nc4cc(C(=O)NCc5cccc(Cl)c5)ccc4Cl)c(=O)[nH]c3n2)CC1
class-assignment: class 1
--
compound: CC1(C)OCC(CNc2ncc3cc(C(=O)Nc4cc(C(=O)NCc5cccc(Cl)c5)ccc4Cl)c(=O)[nH]c3n2)O1 (stereo not drawn)
class-assignment: class 0
--
compound: COc1ncc2cc(C(=O)Nc3cc(C(=O)N[C@H](CN)c4cccc(Cl)c4)ccc3Cl)c(=O)[nH]c2n1
class-assignment: class 1
--
compound: COC(=O)c1ccc(Cl)c(NC(=O)c2cc3cnc(N(CCO)CCO)nc3[nH]c2=O)c1
class-assignment: class 1
--
compound: CC(C)(O)CNc1ncc2cc(C(=O)Nc3cc(C(=O)NCc4cccc(Cl)c4)ccc3Cl)c(=O)[nH]c2n1
class-assignment: class 0
--
compound: NC1CCN(c2ncc3cc(C(=O)Nc4cc(C(=O)NC(CCO)c5ccccc5)ccc4Cl)c(=O)[nH]c3n2)CC1 (stereo not drawn) [Example 148, hydrochloride]
class-assignment: class 0
--
compound: C[C@@H](NC(=O)c1ccc(Cl)c(NC(=O)c2cc3cnc(N4CCOCC4)nc3[nH]c2=O)c1)c1ccccc1
class-assignment: class 0
--
compound: COc1ncc2cc(C(=O)Nc3cc(C(=O)NCCC(N)=O)ccc3Cl)c(=O)[nH]c2n1
class-assignment: class 0
--
compound: COC(=O)c1ccc(Cl)c(NC(=O)c2cc3cnc(N4CCOCC4)nc3[nH]c2=O)c1
class-assignment: class 0
--
compound: NCC(NC(=O)c1ccc(Cl)c(NC(=O)c2cc3cncnc3[nH]c2=O)c1)c1ccccc1 (stereo not drawn) [Example 151, hydrochloride]
class-assignment: class 0
--
compound: COC(=O)c1ccc(Cl)c(NC(=O)c2cc3cnc(N4CCCCC4)nc3[nH]c2=O)c1
class-assignment: class 1
--
compound: COc1ncc2cc(C(=O)Nc3cc(C(=O)NCc4ccccn4)ccc3Cl)c(=O)[nH]c2n1
class-assignment: class 0
--
compound: COc1ncc2cc(C(=O)Nc3cc(C(=O)NC(CN)c4cccc(Cl)c4)ccc3Cl)c(=O)[nH]c2n1 (stereo not drawn)
class-assignment: class 1
--
compound: O=C(NCc1cccc(Cl)c1)c1ccc(Cl)c(NC(=O)c2cc3cnc(NCCO)nc3[nH]c2=O)c1
class-assignment: class 1
--
compound: COc1ncc2cc(C(=O)Nc3cc(C(=O)NC(CN)C4CCCCC4)ccc3Cl)c(=O)[nH]c2n1 (stereo not drawn)
class-assignment: class 1

The origin of these recorded values is patent US20120184542A1.
